assayTarget: HLA-A*11:01
method: IEDB peptide-MHC binding, purified MHC/direct/fluorescence; filed as Kd, often an IC50 or EC50 that approximates it; bounds were set here for any values at or beyond the usual limits of such assays
assayConditions: source organism: Influenza A virus (A/Viet Nam/HN/2004(H5N1))
pKd: −log10 of the molar value.
quantityKind: pKd

sequenceInput	testValue
RRVRDNMTK	≤ 4.70

###

assayTarget: HLA-A*30:01
method: IEDB peptide-MHC binding, purified MHC/competitive/radioactivity; filed as Kd, often an IC50 or EC50 that approximates it; bounds were set here for any values at or beyond the usual limits of such assays
assayConditions: source organism: Dengue virus 3 Martinique/1243/1999
pKd: −log10 of the molar value.
Measured pKd, listed per entry.

sequenceInput	pKd
ALTLATGPIT	6.80
LTSRDGEPRM	4.96
NAICSAVPVH	5.53
QGKRTLTPQP	5.90

###

assayTarget: HLA-A*29:02
method: IEDB peptide-MHC binding, purified MHC/competitive/radioactivity; filed as Kd, often an IC50 or EC50 that approximates it; bounds were set here for any values at or beyond the usual limits of such assays
assayConditions: source organism: Mammarenavirus juninense
pKd: −log10 of the molar value.
quantityKind: pKd

sequenceInput	testValue
LFQFFVFLV	6.36

###

assayTarget: HLA-A*03:01
method: IEDB peptide-MHC binding, purified MHC/direct/fluorescence; filed as Kd, often an IC50 or EC50 that approximates it; bounds were set here for any values at or beyond the usual limits of such assays
assayConditions: source organism: Influenza A virus (A/equine/New York/1/1999(H3N8))
pKd: −log10 of the molar value.

sequenceInput	pKd
RELVRKTRF	≤ 4.70

###

assayTarget: HLA-A*24:03
method: IEDB peptide-MHC binding, purified MHC/direct/fluorescence; filed as Kd, often an IC50 or EC50 that approximates it; bounds were set here for any values at or beyond the usual limits of such assays
assayConditions: source organism: Vibrio cholerae O139

sequenceInput	assayTarget	Kd
EKDSNHNVL	HLA-A*24:03	≥ 20 µM

###

assayTarget: HLA-B*54:01
method: IEDB peptide-MHC binding, purified MHC/competitive/radioactivity; filed as Kd, often an IC50 or EC50 that approximates it; bounds were set here for any values at or beyond the usual limits of such assays
assayConditions: source organism: Mammarenavirus guanaritoense
pKd: −log10 of the molar value.

sequenceInput	pKd
KPINLSNSV	6.71

###

assayTarget: HLA-B*40:01
method: IEDB peptide-MHC binding, purified MHC/competitive/fluorescence; filed as Kd, often an IC50 or EC50 that approximates it; bounds were set here for any values at or beyond the usual limits of such assays
assayConditions: source organism: Escherichia coli 536
quantityKind: Kd (nM)

sequenceInput	testValue
EEQQSMLAL	8.3

###

assayTarget: HLA-A*26:02
method: IEDB peptide-MHC binding, purified MHC/competitive/fluorescence; filed as Kd, often an IC50 or EC50 that approximates it; bounds were set here for any values at or beyond the usual limits of such assays
assayConditions: source organism: Variola virus
pKd: −log10 of the molar value.

sequenceInput	pKd
SQIETGTPF	9.10

###

assayTarget: HLA-B*07:02
method: IEDB peptide-MHC binding, purified MHC/competitive/fluorescence; bounds were set here for any values at or beyond the usual limits of such assays
assayConditions: source organism: Vaccinia virus

sequenceInput	IC50
YIKNIGNTK	≥ 745 µM

###

assayTarget: HLA-B*07:02
method: IEDB peptide-MHC binding, purified MHC/competitive/radioactivity; filed as Kd, often an IC50 or EC50 that approximates it; bounds were set here for any values at or beyond the usual limits of such assays
assayConditions: source organism: Hepatitis B virus
quantityKind: Kd

sequenceInput	assayTarget	quantityKind	testValue
WLSLLVPFV	HLA-B*07:02	Kd	≥ 35 µM

###

assayTarget: HLA-A*29:02
method: IEDB peptide-MHC binding, purified MHC/competitive/fluorescence; filed as Kd, often an IC50 or EC50 that approximates it; bounds were set here for any values at or beyond the usual limits of such assays
assayConditions: source organism: Vibrio vulnificus YJ016

sequenceInput	assayTarget	Kd
LTDEQKNAV	HLA-A*29:02	≥ 20 µM

###

assayTarget: HLA-B*15:01
method: IEDB peptide-MHC binding, purified MHC/direct/fluorescence; filed as Kd, often an IC50 or EC50 that approximates it; bounds were set here for any values at or beyond the usual limits of such assays
assayConditions: source organism: Cryptosporidium parvum
quantityKind: Kd (µM)

sequenceInput	assayTarget	testValue
RKWGLDFCY	HLA-B*15:01	2.08

###

assayTarget: HLA-A*01:01
method: IEDB peptide-MHC binding, purified MHC/competitive/radioactivity; filed as Kd, often an IC50 or EC50 that approximates it; bounds were set here for any values at or beyond the usual limits of such assays
assayConditions: source organism: Mammarenavirus brazilense
quantityKind: Kd (µM)

sequenceInput	quantityKind	units	testValue
ELLGYCVSLF	Kd	µM	3.6

###

assayTarget: HLA-A*02:11
method: IEDB peptide-MHC binding, purified MHC/direct/fluorescence; filed as Kd, often an IC50 or EC50 that approximates it; bounds were set here for any values at or beyond the usual limits of such assays
assayConditions: source organism: Vibrio parahaemolyticus RIMD 2210633

sequenceInput	Kd
SMNYPNSYK	≥ 20 µM

###

Measured Kd, listed per entry.
assayTarget: HLA-B*54:01
method: IEDB peptide-MHC binding, purified MHC/competitive/radioactivity; filed as Kd, often an IC50 or EC50 that approximates it; bounds were set here for any values at or beyond the usual limits of such assays
assayConditions: source organism: Vaccinia virus WR
quantityKind: Kd (µM)

sequenceInput	units	operator	testValue
DPTFQLLNM	µM	≥	78.1
SPPLISILMI	µM	=	7.63
SPPIPMSRL	µM	≥	41.5
RVYEALYYV	µM	=	6.41

###

assayTarget: HLA-B*15:42
method: IEDB peptide-MHC binding, purified MHC/competitive/fluorescence; filed as Kd, often an IC50 or EC50 that approximates it; bounds were set here for any values at or beyond the usual limits of such assays
assayConditions: source organism: Escherichia coli K-12

sequenceInput	assayTarget	Kd
RQWGMGFLL	HLA-B*15:42	≥ 5 µM

###

assayTarget: HLA-B*40:01
method: IEDB peptide-MHC binding, purified MHC/competitive/radioactivity; filed as Kd, often an IC50 or EC50 that approximates it; bounds were set here for any values at or beyond the usual limits of such assays
assayConditions: source organism: Mammarenavirus lassaense
Measured Kd, listed per entry.
quantityKind: Kd (µM)

sequenceInput	assayTarget	quantityKind	units	operator	testValue
SESDLEFSW	HLA-B*40:01	Kd	µM	=	14.9
GEPKTVKVL	HLA-B*40:01	Kd	µM	=	18.8
ADNLITEML	HLA-B*40:01	Kd	µM	≥	27.8

###

Measured pIC50, listed per entry.
assayTarget: HLA-A*02:01
method: IEDB peptide-MHC binding, purified MHC/competitive/fluorescence; bounds were set here for any values at or beyond the usual limits of such assays
assayConditions: source organism: Sudan ebolavirus
pIC50: −log10 of the molar value.

sequenceInput	operator	pIC50
LYDRLASTV	=	5.13
HTSGPSVMA	≤	3.69

###

assayTarget: HLA-A*80:01
method: IEDB peptide-MHC binding, purified MHC/competitive/fluorescence; filed as Kd, often an IC50 or EC50 that approximates it; bounds were set here for any values at or beyond the usual limits of such assays
assayConditions: source organism: Yersinia pestis Nepal516

sequenceInput	assayTarget	Kd
LELIGNAES	HLA-A*80:01	≥ 20 µM

###

assayTarget: HLA-A*02:03
method: IEDB peptide-MHC binding, purified MHC/competitive/fluorescence; filed as Kd, often an IC50 or EC50 that approximates it; bounds were set here for any values at or beyond the usual limits of such assays
assayConditions: source organism: Vaccinia virus Copenhagen
quantityKind: Kd (µM)

sequenceInput	assayTarget	units	testValue
KYFDDVTAF	HLA-A*02:03	µM	3.99

###

assayTarget: HLA-C*05:01
method: IEDB peptide-MHC binding, purified MHC/direct/fluorescence; filed as Kd, often an IC50 or EC50 that approximates it; bounds were set here for any values at or beyond the usual limits of such assays
assayConditions: source organism: Bacillus anthracis str. A0193
pKd: −log10 of the molar value.

sequenceInput	assayTarget	pKd
YNDWEGNEL	HLA-C*05:01	7.02

###

assayTarget: HLA-A*01:01
method: IEDB peptide-MHC binding, purified MHC/direct/fluorescence; filed as Kd, often an IC50 or EC50 that approximates it; bounds were set here for any values at or beyond the usual limits of such assays
assayConditions: source organism: Influenza A virus (A/equine/New York/1/1999(H3N8))

sequenceInput	assayTarget	Kd
RELVRKTRF	HLA-A*01:01	≥ 20 µM

###

assayTarget: HLA-C*14:02
method: IEDB peptide-MHC binding, purified MHC/direct/fluorescence; filed as Kd, often an IC50 or EC50 that approximates it; bounds were set here for any values at or beyond the usual limits of such assays
assayConditions: source organism: Bacillus thuringiensis serovar tochigiensis BGSC 4Y1
pKd: −log10 of the molar value.

sequenceInput	assayTarget	pKd
KYAKFFQNF	HLA-C*14:02	6.37
